system: TNFα production in LPS-stimulated human monocytes; test: Cot Monocyte TNFα Cell Based Assay; settings: Homo sapiens, Monocyte, LPS-stimulated human monocytes, TNFα TR-FRET; read-out: EC50 TNF
QUANTITY KIND: EC50 (nM)

{"columns": ["MOLECULE", "OUTPUT UNIT", "EC50"],
 "data": [
  ["CC(C)(C)CNc1c(C#N)cnc2c(C#N)cc(N[C@H](c3cn(C4(C#N)CC4)nn3)c3ccccc3C(F)F)cc12", "nM", 131]
]}

(A) Cc1cc(C#N)ccc1[C@H](Nc1cc(C#N)c2ncc(C#N)c(NCC(C)(C)C)c2c1)c1cn(C2(C(F)F)CC2)nn1
(B) CC(C)(C)CNc1c(C#N)cnc2c(Cl)cc(N[C@@H](c3cccc(-n4ccnc4)c3)c3cn(C4CC4)nn3)cc12
-- ask When their EC50 values are compared, which is larger, A or B ? Your choice should be expressed through its label.
-- reply B

* * *

molecular target: human Cot catalytic domain (30-397 amino acids) (Homo sapiens); construct: Purified recombinant human Cot catalytic domain (30-397 amino acids) was purchased from Cama Biosciences; purchased Cama Biosciences (so in the source); assay: High Throughput Cot Biochemical Assay (KinEASE TR-FRET); settings: Cot biochemical HTRF (KinEASE TR-FRET) assay; read-out: IC50 HTRF
Sequence (P41279 30-397): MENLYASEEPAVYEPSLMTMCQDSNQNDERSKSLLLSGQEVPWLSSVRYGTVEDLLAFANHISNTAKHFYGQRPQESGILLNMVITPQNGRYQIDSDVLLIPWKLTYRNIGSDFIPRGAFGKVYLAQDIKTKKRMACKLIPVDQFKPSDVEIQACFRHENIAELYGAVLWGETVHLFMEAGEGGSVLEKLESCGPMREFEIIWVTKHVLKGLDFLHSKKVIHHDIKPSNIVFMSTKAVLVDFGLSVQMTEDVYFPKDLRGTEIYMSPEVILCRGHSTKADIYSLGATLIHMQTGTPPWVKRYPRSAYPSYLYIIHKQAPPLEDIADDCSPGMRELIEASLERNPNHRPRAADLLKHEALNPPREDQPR
QUANTITY KIND: IC50 (nM)

{"columns": ["MOLECULE", "OUTPUT UNIT", "IC50"],
 "data": [
  ["CC(C)n1cc([C@@H](Nc2cc(Cl)c3ncc(C#N)c(Nc4ccc(F)c(Cl)c4)c3c2)c2cccc(CN(C)C)c2)nn1 [Example 712]", "nM", 14],
  ["Cc1ccccc1[C@@H](C)Nc1c(C#N)cnc2c(Cl)cc(N[C@@H](c3ccccc3)c3cn(C4CCN(C(C)(C)C)CC4)nn3)cc12 [Example 585]", "nM", 16],
  ["CC(C)(C)N1CCC(n2cc([C@@H](Nc3cc(Cl)c4ncc(C#N)c(Nc5ccc(C(F)(F)F)nc5)c4c3)c3ccc(Cl)cc3)nn2)CC1 [Example 750]", "nM", 1890],
  ["COCCNc1c(C#N)cnc2c(Cl)cc(N[C@@H](c3ccccc3)c3cn(C4CCN(C(C)(C)C)CC4)nn3)cc12 [Example 554]", "nM", 1300],
  ["CCN1CCC(n2cc([C@@H](Nc3cc(F)c4ncc(C#N)c(Nc5ccc(F)c(Cl)c5)c4c3)c3ccc(Cl)cc3)nn2)CC1 [Example 813]", "nM", 6],
  ["N#Cc1cnc2c(Cl)cc(N[C@@H](c3ccc(Cl)cc3)c3cn(C4CCN(C5COC5)CC4)nn3)cc2c1Nc1ccc(O)c(Cl)c1 [Example 700]", "nM", 444]
]}

(I) CC(C)(C)N1CCC(n2cc([C@@H](Nc3cc(Cl)c4ncc(C#N)c(Nc5ccc(F)c(F)c5)c4c3)c3ccccc3)nn2)CC1 [Example 787]
(II) CC(C)(C)N1CCC(n2cc([C@@H](Nc3cc(Cl)c4ncc(C#N)c(Nc5ccc(F)c(Cl)c5)c4c3)c3cccc(N4CCCCC4=O)c3)nn2)CC1 [Example 548]
(III) CC(C)(C)N1CCC(n2cc([C@@H](Nc3cc(Cl)c4ncc(C#N)c(NC5CCC5)c4c3)c3ccc(Cl)cc3)nn2)CC1 [Example 702]
(IV) N#Cc1cnc2c(Cl)cc(N[C@@H](c3cccc(N4CCCS4(=O)=O)c3)c3c[nH]nn3)cc2c1Nc1ccc(Cl)c(Cl)c1F [Example 528]
-- ask Task field, ranking: reported IC50, descending order. State the ranking by listing the labels in the requested order.
-- reply III, IV, I, II
(III: 314 nM, IV: 54 nM, I: 11 nM, II: 1 nM)

(1) Cn1cc([C@@H](Nc2cc(Cl)c3ncc(C#N)c(Nc4ccc(F)c(Cl)c4)c3c2)c2cccc(CN3CCCC3)c2)nn1 [Example 841]
(2) Cc1ccc(CNc2c(C#N)cnc3c(Cl)cc(N[C@@H](c4ccc(Cl)cc4)c4cn(C5CCN(C(C)(C)C)CC5)nn4)cc23)cc1 [Example 678]
-- ask When their IC50 values are compared, which is larger, 1 or 2 ? Your choice should be expressed through its label.
-- reply 2
(2: 1430 nM, 1: 8 nM)

(I) N#Cc1cnc2c(F)cc(N[C@@H](c3ccc(Cl)cc3)c3cn(C4CCNCC4)nn3)cc2c1Nc1ccc(F)c(Cl)c1 [Example 814]
(II) COc1ccc(Nc2c(C#N)cnc3c(Cl)cc(N[C@@H](c4ccccc4)c4cn(C5COC5)nn4)cc23)cn1 [Example 491]
-- ask When their IC50 values are compared, which is larger, I or II ? Your choice should be expressed through its label.
-- reply II
(II: 123 nM, I: 10 nM)

Recorded values, source patent US10316017B2.
